# Tested on: JHH-2 (Hepatocellular Carcinoma)
# experimental protocol: combination Emax (second highest fraction inhibited in the dose matrix, 72 h); higher = more inhibition; extreme values may be limits of the assay
measured endpoint: combination Emax

These recorded examples may help you get a feel for the data.
compound	measured endpoint	observed
Cc1c2c(nn1C)CSCc1cc(n(C)n1)CSc1cc(c3ccccc3c1)OCCCc1c(C(=O)O)n(C)c3c-2c(Cl)ccc13 [AZD5991] + C1CN(CCC1(C(=O)N[C@@H](CCO)C2=CC=C(C=C2)Cl)N)C3=NC=NC4=C3C=CN4 [Capivasertib] (first compound max 1 µM, 7x7, partner max 3 µM)	combination Emax	0.604
CC(=O)c1c(C)c2cnc(Nc3ccc(N4CCNCC4)cn3)nc2n(C2CCCC2)c1=O [Palbociclib] + Cn1cnc2c(F)c(Nc3ccc(Br)cc3Cl)c(C(=O)NOCCO)cc21 [Selumetinib] (first compound max 10 µM, 7x7, partner max 10 µM)	combination Emax	0.463
CCN(CCO)CCCOc1ccc2c(Nc3cc(CC(=O)Nc4cccc(F)c4)[nH]n3)ncnc2c1 [AZD2811] + C=CCn1c(=O)c2cnc(Nc3ccc(N4CCN(C)CC4)cc3)nc2n1-c1cccc(C(C)(C)O)n1 [AZD1775] (first compound max 1 µM, partner max 1 µM)	combination Emax	0.574

Record C=CCn1c(=O)c2cnc(Nc3ccc(N4CCN(C)CC4)cc3)nc2n1-c1cccc(C(C)(C)O)n1 [AZD1775] + Nc1ccn([C@@H]2O[C@H](CO)[C@@H](O)C2(F)F)c(=O)n1 [Gemcitabine] (first compound max 1 µM, partner max 0.3 µM) . Reported combination Emax: 0.735

Record COc1cccc(OCCCN)c1-c1cc(Nc2cnc(C#N)cn2)n[nH]1 [Prexasertib] + Cc1cc2ncnn2cc1Nc1ncc2c(n1)n(C1CCOCC1)c(=O)n2C [AZD7648] (first compound max 1 µM, 7x7, partner max 10 µM) . Reported combination Emax: 0.891

Record N#Cc1cnc(Nc2cc(NC[C@H]3CNCCO3)c(C(F)(F)F)cn2)cn1 [SRA737] + O=c1[nH]cc(F)c(=O)[nH]1 [5-Fluorouracil] (first compound max 10 µM, 7x7, partner max 20 µM) . Reported combination Emax: 0.623

Record C[C@@H](c1ccc2nccn2c1)n1nnc2ncc(-c3cnn(C)c3)nc21 [Savolitinib] + Cc1c2c(nn1C)CSCc1cc(n(C)n1)CSc1cc(c3ccccc3c1)OCCCc1c(C(=O)O)n(C)c3c-2c(Cl)ccc13 [AZD5991] (first compound max 1 µM, 7x7, partner max 1 µM) . Reported combination Emax: 0.142

Record NC1(C(=O)N[C@@H](CCO)c2ccc(Cl)cc2)CCN(c2ncnc3[nH]ccc23)CC1 [Capivasertib] + CC(C)n1c(=O)n(C)c2cnc3cc(F)c(-c4ccc(OCCCN5CCCCC5)nc4)cc3c21 [AZD1390] (first compound max 10 µM, 7x7, partner max 0.3 µM) . Reported combination Emax: 0.539

---

# Test system: HCC70 (Breast Carcinoma);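 also: after 72 h of two-drug dosing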
# experimental protocol: Bliss excess, mean over the matrix (fraction); higher = more synergy
Bliss excess vs -0.03: at or above is satisfied, below is not satisfied.

Data request: Could you verify whether the entry Cn1cnc2c(F)c(Nc3ccc(Br)cc3Cl)c(C(=O)NOCCO)cc21 [Selumetinib] + CCN(CCO)CCCOc1ccc2c(Nc3cc(CC(=O)Nc4cccc(F)c4)[nH]n3)ncnc2c1 [AZD2811] (first compound max 10 µM, 7x7, partner max 1 µM) shows Bliss excess of no less than -0.03?
Data returned: satisfied

Origin of the recorded values: the supplement of paper PMC11061612
